Test: chemical genetic growth profiling, strain panel (AID 1159580);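 note: tested at 20 µM; growth read once vehicle control cultures reached saturation at 30 °C; 1 = growth at the plate median or of vehicle wells; lower values mean less growth of the strain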
Conditions: S. cerevisiae deletion strains, growth OD, locus YOR184W, strain ser1, hits give low values
Among all 5,500 compounds or so, about 2,000 (36%) were called active. Not shown: some 18% with an inconclusive outcome. The list shows a part of the results.

Molecule: CC1(C)C(=O)C=CC2(C)C3CCC4(C)C(c5ccoc5)CC5OC54C3C(O)CC12 (configuration not stated)
normalized growth: 0.886

Molecule: CC1(C)C(=O)C=C[C@@]2(C)C1=C(O)C(=O)[C@]1(C)C2CC[C@@]2(C)[C@H](c3ccoc3)C[C@H]3O[C@]321 (some centres not stated)
normalized growth: 0.487

Molecule: CC(=O)OC1CC(OC(C)=O)C2(C)C(CC(OC(C)=O)C3(C)C2CCC2(C)C(c4ccoc4)CC4OC423)C1(C)C (configuration not stated)
normalized growth: 0.982

Molecule: CC(=O)O[C@@H]1C[C@@]2(C)[C@H](c3ccoc3)C[C@H]3O[C@]32[C@]2(C)C(=O)C(O)=C3C(C)(C)C(=O)C=C[C@]3(C)C12 (some centres not stated)
normalized growth: 0.744

Molecule: CC(=O)O[C@@H]1CC2C(C)(C)C=CC(=O)[C@]2(C)C2CC[C@@]3(C)[C@H](c4ccoc4)OC(=O)C4OC43[C@@]21C (some centres not stated)
normalized growth: 1.01

Molecule: CC(=O)Nc1ccc(S(=O)(=O)Nc2ccc([N+](=O)[O-])cc2)cc1
normalized growth: 1

Molecule: CC(=O)OCC1(C)CCC2(C)CCC3(C)C4=CCc5c(cc(OC(C)=O)c(OC(C)=O)c5C)C4(C)CCC3(C)C2C1 (configuration not stated)
normalized growth: 1.04

----------
Each entry below lists one item and its recorded normalized growth value.
Test: chemical genetic growth profiling, strain panel (AID 1159580);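 note: tested at 20 µM; growth read once vehicle control cultures reached saturation at 30 °C; 1 = growth at the plate median or of vehicle wells; lower values mean less growth of the strain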
Conditions: S. cerevisiae deletion strains, growth OD, locus YJL154C, strain vps35, hits give low values
About 2,000 (36%) of roughly 5,500 compounds were called active. Roughly 18% stayed inconclusive and do not appear here. The list shows a part of the results.
Value Type: normalized growth

Compound: O=C(O)CCCCC1CCSS1 (stereo unspecified)
Value Type: normalized growth
Numeric Result: 0.975
--
Compound: C=C(CC)C(=O)c1ccc(OCC(=O)O)c(Cl)c1Cl
Value Type: normalized growth
Numeric Result: 0.997
--
Compound: CCOP(=S)(OCC)SCn1c(=O)oc2cc(Cl)ccc21
Value Type: normalized growth
Numeric Result: 0.972
--
Compound: COc1c2c(cc3c1OCO3)CCN(C)C2
Value Type: normalized growth
Numeric Result: 0.998
--
Compound: CC1(C)C(C(Cl)Cl)C2(Cl)C(Cl)C(Cl)C1(Cl)C2(Cl)Cl (stereo unspecified)
Value Type: normalized growth
Numeric Result: 0.993
--
Compound: Nc1ncnc2c1ncn2C1O[C@H](COP(=O)(O)O)[C@@H](O)[C@H]1O (stereo partly specified)
Value Type: normalized growth
Numeric Result: 0.999
--
Compound: C[C@H]1[C@H]2CCC3C4CC=C5C[C@@H](N(C)C)CC[C@]5(C)C4CC[C@@]32CN1C (stereo partly specified)
Value Type: normalized growth
Numeric Result: 1
--
Compound: COC(=O)C[C@H]1C(C)(C)C(=O)[C@@H]2CC3=C4CC(=O)O[C@@H](c5ccoc5)[C@]4(C)CCC3[C@@]1(C)C2=O (stereo partly specified)
Value Type: normalized growth
Numeric Result: 0.983
--
Compound: COc1cc(OC)c2c(=O)c(-c3ccccc3)c(C)oc2c1OC
Value Type: normalized growth
Numeric Result: 0.985
--
Compound: Cc1c(Nc2ncccc2C(=O)O)cccc1C(F)(F)F
Value Type: normalized growth
Numeric Result: 0.972
--
Compound: C1CNCCN1
Value Type: normalized growth
Numeric Result: 1.02
